Endpoint: log10 of Ki. System: Adenosine receptor A3 (Homo sapiens). Items follow.
Please note: log10 values; quantity Ki; unit nM.

Below are worked cases with known answers.
Structure Smiles String	log10 of Ki
Clc1ccc(Cl)c(-c2nc(N3CCCCC3)c3nc[nH]c3n2)c1	2.30
Clc1ccc(-c2nc(N3CCCCC3)c3nc[nH]c3n2)cc1	0.90
CN1CCN(c2nc(-c3ccc(Cl)c(Cl)c3)nc3[nH]cnc23)CC1	1.60
Oc1cccc(-c2nc(N3CCCCC3)c3nc[nH]c3n2)c1	1.80

Okay, now this compound:
The recorded log10 of Ki for entry CN1CCN(c2nc(-c3cccc(Cl)c3)nc3[nH]cnc23)CC1 equals 2.00

###

Target: Adenosine receptor A2a (Homo sapiens, UniProt P29274)
Sequence (P29274 whole entry): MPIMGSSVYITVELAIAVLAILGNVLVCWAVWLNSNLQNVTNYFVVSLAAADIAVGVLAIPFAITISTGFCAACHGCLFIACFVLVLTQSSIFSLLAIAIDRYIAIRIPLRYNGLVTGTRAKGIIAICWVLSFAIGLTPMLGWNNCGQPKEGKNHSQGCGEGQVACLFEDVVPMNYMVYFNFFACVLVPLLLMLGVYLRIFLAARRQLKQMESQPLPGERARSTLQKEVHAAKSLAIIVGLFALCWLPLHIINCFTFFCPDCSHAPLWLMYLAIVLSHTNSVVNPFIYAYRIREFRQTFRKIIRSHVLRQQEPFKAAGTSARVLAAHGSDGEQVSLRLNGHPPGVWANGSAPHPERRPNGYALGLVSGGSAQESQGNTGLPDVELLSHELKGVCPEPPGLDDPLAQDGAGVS
Experiment: Displacement of [3H]ZM241385 from human A2A receptor expressed in HeLa-A2A cells at 10 uM incubated for 30 mins by scintillation counting method based radioligand competitive binding assay
Assay type: cell-based
Readout Name: inhibition (%)
Quick reminder: number only, in %, skip the unit.

Below are worked cases with known answers.
Structure Smiles String	inhibition, %
CN1CCN(c2nc(-c3ccc(Cl)cc3)nc3[nH]cnc23)CC1	15.9
Cn1cnc2c(N3CCCCC3)nc(-c3cccc(O)c3O)nc21	24.1
CN1CCN(c2ncnc3[nH]cnc23)CC1	19.1
Cn1cnc2c(N3CCCCC3)nc(-c3ccccc3O)nc21	74.8

The recorded inhibition for entry CN1CCN(c2nc(-c3cccc(O)c3)nc3c2ncn3C)CC1 equals 4.2

The recorded inhibition for entry CN1CCN(c2nc(-c3ccc(O)cc3)nc3[nH]cnc23)CC1 equals 37

The recorded inhibition for entry Cn1cnc2c(N3CCCCC3)nc(-c3ccccc3Cl)nc21 equals 36.4

The recorded inhibition for entry Clc1ccc(Cl)c(-c2nc(N3CCCCC3)c3nc[nH]c3n2)c1 equals 21

The recorded inhibition for entry Clc1ccc(-c2nc(N3CCCCC3)c3nc[nH]c3n2)cc1Cl equals 7

The recorded inhibition for entry Cn1cnc2c(N3CCCCC3)nc(-c3cccc(O)c3)nc21 equals 54.8

The recorded inhibition for entry CN1CCN(c2nc(-c3cccc(Cl)c3)nc3[nH]cnc23)CC1 equals 52.7

The recorded inhibition for entry Clc1cccc(-c2nc(N3CCCCC3)c3nc[nH]c3n2)c1 equals 43.5

###

Target: Adenosine receptor A2b (Homo sapiens)
Sequence (P29275 whole entry): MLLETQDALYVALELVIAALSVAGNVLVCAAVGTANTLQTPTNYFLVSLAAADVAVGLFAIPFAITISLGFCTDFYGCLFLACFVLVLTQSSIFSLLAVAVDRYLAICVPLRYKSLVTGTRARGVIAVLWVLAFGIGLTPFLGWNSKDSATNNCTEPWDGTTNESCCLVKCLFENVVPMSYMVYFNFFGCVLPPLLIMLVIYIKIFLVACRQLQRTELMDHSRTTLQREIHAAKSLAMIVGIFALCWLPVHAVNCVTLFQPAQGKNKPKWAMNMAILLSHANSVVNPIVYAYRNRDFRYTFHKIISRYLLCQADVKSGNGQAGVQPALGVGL
Experiment: Displacement of [3H]DPCPX from human A2B receptor expressed in HEK-293-A2B cells at 10 uM incubated for 30 mins by scintillation counting method based radioligand competitive binding assay
Format: cell-based
Readout Name: inhibition (%)
Quick reminder: number only, in %, skip the unit.

Structure Smiles String	Readout Unit	inhibition
CN1CCN(c2nc(-c3ccc(O)cc3)nc3[nH]cnc23)CC1	%	53
Cn1cnc2c(N3CCCCC3)nc(-c3ccccc3Cl)nc21	%	32.7
Cn1cnc2c(N3CCCCC3)nc(-c3cccc(O)c3O)nc21	%	26
CN1CCN(c2nc(-c3cccc(O)c3)nc3[nH]cnc23)CC1	%	27

The recorded inhibition for entry Cn1cnc2c(N3CCCCC3)nc(-c3cccc(Cl)c3)nc21 equals 24.2

###

Target: Adenosine receptor A1 (Homo sapiens)
Assay: Displacement of [3H]DPCPX from human A1 receptor expressed in CHO-A1 cells at 10 uM incubated for 60 mins by scintillation counting method based radioligand competitive binding assay
Format: cell-based
Property: inhibition; scope: individual compounds
Quick reminder: number only, in %, skip the unit.

Structure Smiles String	Tested Target	inhibition, %
Cn1cnc2c(N3CCCCC3)nc(-c3cccc(Cl)c3)nc21	Adenosine receptor A1 (Homo sapiens)	22.4
Clc1ccc(-c2nc(N3CCCCC3)c3nc[nH]c3n2)cc1Cl	Adenosine receptor A1 (Homo sapiens)	24.1
Cn1cnc2c(N3CCCCC3)nc(-c3cccc(O)c3O)nc21	Adenosine receptor A1 (Homo sapiens)	17.2
Cn1cnc2c(N3CCCCC3)nc(-c3ccccc3Cl)nc21	Adenosine receptor A1 (Homo sapiens)	35.2

Okay, now this compound:
The recorded inhibition for entry Clc1ccc(Cl)c(-c2nc(N3CCCCC3)c3nc[nH]c3n2)c1 equals 1.4

###

Biological target: Adenosine receptor A1 (Homo sapiens) (UniProt P30542)
Assay: Displacement of [3H]DPCPX from human A1 receptor expressed in CHO-A1 cells at 10 uM incubated for 60 mins by scintillation counting method based radioligand competitive binding assay
Format: cell-based
Property: inhibition; scope: individual compounds
Quick reminder: number only, in %, skip the unit.

Below are worked cases with known answers.
Structure Smiles String	inhibition / %
Cn1cnc2c(N3CCCCC3)nc(-c3cc(Cl)ccc3Cl)nc21	13.2
CN1CCN(c2ncnc3[nH]cnc23)CC1	9.2
CN1CCN(c2nc(-c3cccc(Cl)c3)nc3c2ncn3C)CC1	45.7

Okay, now this compound:
The recorded inhibition for entry Cn1cnc2c(N3CCCCC3)nc(-c3cccc(O)c3)nc21 equals 78.5

###

Molecular target: Adenosine receptor A3 (Homo sapiens) (UniProt P0DMS8)
Sequence (P0DMS8 whole entry): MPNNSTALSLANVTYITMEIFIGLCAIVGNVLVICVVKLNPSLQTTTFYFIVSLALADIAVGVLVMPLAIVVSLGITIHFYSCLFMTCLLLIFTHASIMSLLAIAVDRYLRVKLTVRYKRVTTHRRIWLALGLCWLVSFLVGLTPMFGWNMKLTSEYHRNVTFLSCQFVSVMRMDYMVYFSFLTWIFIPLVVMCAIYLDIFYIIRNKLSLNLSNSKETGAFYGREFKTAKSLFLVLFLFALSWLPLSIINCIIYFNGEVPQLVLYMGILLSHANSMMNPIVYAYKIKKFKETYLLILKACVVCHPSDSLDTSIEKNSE
Test: Displacement of [3H]NECA from human A3 receptor expressed in HeLa-A3 cells at 10 uM incubated for 180 mins by scintillation counting method based radioligand competitive binding assay
Format: cell-based
Readout Name: inhibition (%)
Quick reminder: number only, in %, skip the unit.

Below are worked cases with known answers.
Structure Smiles String	inhibition, %
CN1CCN(c2nc(-c3ccc(Cl)c(Cl)c3)nc3c2ncn3C)CC1	35.3
CN1CCN(c2nc(-c3cccc(Cl)c3)nc3c2ncn3C)CC1	38.3
Cn1cnc2c(N3CCCCC3)nc(-c3ccccc3Cl)nc21	2.1
Cn1cnc2c(N3CCCCC3)nc(-c3cccc(O)c3)nc21	49.1
CN1CCN(c2nc(-c3ccccc3O)nc3c2ncn3C)CC1	15.3

Per the reported Adenosine receptor A3 (Homo sapiens) (UniProt P0DMS8) data, Cn1cnc2c(N3CCCCC3)nc(-c3cccc(Cl)c3)nc21 has inhibition of 6.1

###

Target sequence: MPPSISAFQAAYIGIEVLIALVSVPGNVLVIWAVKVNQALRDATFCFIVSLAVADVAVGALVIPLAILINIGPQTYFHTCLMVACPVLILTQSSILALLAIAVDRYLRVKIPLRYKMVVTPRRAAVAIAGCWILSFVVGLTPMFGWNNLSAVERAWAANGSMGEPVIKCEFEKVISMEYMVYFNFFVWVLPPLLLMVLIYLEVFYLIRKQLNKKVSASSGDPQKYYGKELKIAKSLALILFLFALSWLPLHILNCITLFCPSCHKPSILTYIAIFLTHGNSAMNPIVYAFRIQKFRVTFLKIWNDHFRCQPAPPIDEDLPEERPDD
Readout Name: Ki (µM)
Quick reminder: number only, in µM, skip the unit.

Structure Smiles String	Endpoint Result
CN1CCN(c2nc(-c3ccc(Cl)cc3)nc3[nH]cnc23)CC1	0.398
CN1CCN(c2nc(-c3ccc(O)cc3)nc3[nH]cnc23)CC1	0.398

Okay, now this compound:
The recorded Ki for entry Oc1cccc(-c2nc(N3CCCCC3)c3nc[nH]c3n2)c1 equals 0.01

###

Molecular target: Adenosine receptor A1 (Homo sapiens)
Assay: Displacement of [3H]DPCPX from human A1 receptor expressed in CHO-A1 cells at 10 uM incubated for 60 mins by scintillation counting method based radioligand competitive binding assay
Assay type: cell-based
Property: inhibition; scope: individual molecules
Quick reminder: number only, in %, skip the unit.

Below are worked cases with known answers.
Structure Smiles String	Readout Name	Endpoint Result
CN1CCN(c2nc(-c3ccc(Cl)c(Cl)c3)nc3c2ncn3C)CC1	inhibition	65.2
CN1CCN(c2nc(-c3ccc(Cl)c(C(F)(F)F)c3)nc3[nH]cnc23)CC1	inhibition	52.4

Per the reported Adenosine receptor A1 (Homo sapiens) data, Cn1cnc2c(N3CCCCC3)nc(-c3ccccc3O)nc21 has inhibition of 50.5

Per the reported Adenosine receptor A1 (Homo sapiens) data, CN1CCN(c2nc(-c3cccc(O)c3)nc3c2ncn3C)CC1 has inhibition of 27.1

###

Target: Adenosine receptor A2b (Homo sapiens)
Assay: Displacement of [3H]DPCPX from human A2B receptor expressed in HEK-293-A2B cells incubated for 30 mins by scintillation counting method based radioligand competitive binding assay
Type: cell-based
Readout Name: pKi
pKi is defined as minus the log10 of a concentration measured in mol/L.

Per the reported Adenosine receptor A2b (Homo sapiens) data, Clc1cccc(-c2nc(N3CCCCC3)c3nc[nH]c3n2)c1 has pKi of 6.00
